In this section we review reported EC50 values for a set of compounds.
Target: human μ-opioid receptor (Homo sapiens)
Sequence (P35372 whole entry): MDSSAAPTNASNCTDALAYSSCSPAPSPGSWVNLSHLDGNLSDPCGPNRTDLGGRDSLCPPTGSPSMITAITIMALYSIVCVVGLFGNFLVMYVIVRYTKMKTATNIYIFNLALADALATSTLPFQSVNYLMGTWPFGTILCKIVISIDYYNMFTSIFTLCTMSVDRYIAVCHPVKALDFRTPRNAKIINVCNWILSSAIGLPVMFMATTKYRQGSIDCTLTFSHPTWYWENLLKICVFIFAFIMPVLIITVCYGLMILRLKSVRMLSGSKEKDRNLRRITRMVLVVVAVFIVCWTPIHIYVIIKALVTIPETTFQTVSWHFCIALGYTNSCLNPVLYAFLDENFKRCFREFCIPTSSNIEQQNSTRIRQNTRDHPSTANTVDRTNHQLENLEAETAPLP
Test: cell-based
Details: CHO-K1 cells, forskolin 20 μM, 30 min incubation; read-out: EC50, activation of μ-opioid receptor (reduction of intracellular cAMP)
A number alone suffices; assume µM.

Please review the following examples before continuing.
INSERT INTO results (compound, assay_endpoint, observed_measurement) VALUES
  ('C[C@H]1NCCc2cc(O)c(O)cc21 [(R)-SAL]', 'EC50', 600),
  ('CC1NCCc2cc(O)c(O)cc21 (racemic) [(R/S)-SAL]', 'EC50', 20);

Now for a further compound.
Recorded result, C[C@@H]1NCCc2cc(O)c(O)cc21 [(S)-SAL] , EC50: 9
